System: BT-549
Assay: NCI tumour cell line growth inhibition, 48 h
Calls of active or inactive are those of the source. Rule as the data show it: active = GI50 up to about 1.1 µM and inactive = higher.
measured.parameter: GI50

# annotated cases, reported GI50 shown
- compound: "Clc1nc2c(C#Cc3ccccc3)ncnc2n1C1CCCCO1 (stereo unspecified)"
  GI50: "14.8 µM (inactive)"
- compound: "N#Cc1c(N2CCOCC2)ncn(-c2ccc(Cl)cc2)c1=O"
  GI50: "> 100 µM (inactive)"
- compound: "C/C=C\\C(CC(=O)NCC(=O)c1c[nH]c2ccccc12)CC(=O)OC (stereo unspecified)"
  GI50: "> 100 µM (inactive)"
- compound: "C=C1CC(Cn2cc(Br)c(=O)[nH]c2=O)(c2ccc(Br)cc2)OC1=O (stereo unspecified)"
  GI50: "2.37 µM (inactive)"
- compound: "N=C(N)SCCSC(=N)N"
  GI50: "> 100 µM (inactive)"

Now examine the next entry.
// query Using known records, supply GI50 for c1ccc2c(Cc3[nH]c4ccccc4c3Cc3c[nH]c4ccccc34)c[nH]c2c1
// result 5.57 µM (inactive)

###

Tested on: U-251
Experiment: NCI tumour cell line growth inhibition, 48 h
Activity calls are given as the source filed them. Rule as the data show it: active = GI50 up to about 1.1 µM and inactive = higher.
Please reply with one of these outcomes: T for active, F for inactive

- molecule: "Cc1cnc2[nH]c(-c3cccc(F)c3)cc(=O)c2c1"
  assigned.class: "T"
- molecule: "NC(CCCCNCc1ccccc1O)C(=O)O (stereo not given)"
  assigned.class: "F"
- molecule: "CC(C)(C)OC(=O)NC(Cc1ccc(OC(C)(C)C)cc1)C(=O)N[C@H]1CCC[C@H]1C(=O)NC(Cc1ccccc1)C(=O)N1CCCC1C(N)=O (stereo not given in full)"
  assigned.class: "F"
- molecule: "NC(=S)C1=C(N)Oc2c(c(=O)oc3ccccc23)C1c1ccc(Br)cc1 (stereo not given)"
  assigned.class: "F"

Let's switch to this molecule now.
// query Record request — test call for CCCC(=O)Nc1cc(/C=C/C(=O)N2C[C@@H]3C[C@]34C2=CC(=O)c2[nH]cc(C)c24)n(C)c1
// result T

###

System: SNB-19
Assay: NCI tumour cell line growth inhibition, 48 h
Active and inactive are the calls of the source. No stated cut-off is given here; in the data, active = GI50 up to about 1.1 µM and inactive = higher.
Here the recorded GI50 is given for each entry.

// below: answered compounds
- compound: "CN(CCCN1C(=O)c2cccc3cc([N+](=O)[O-])cc(c23)C1=O)CCN(C)CCCN1C(=O)c2cccc3cc([N+](=O)[O-])cc(c23)C1=O"
  measured.parameter: "GI50"
  result: "> 39.3 µM (inactive)"
- compound: "NC(=O)c1csc(C2C=CC(CO)O2)n1 (centres undefined)"
  measured.parameter: "GI50"
  result: "> 100 µM (inactive)"
- compound: "CCOC(=O)C12CCCC1(O)N(NC(=O)OC(C)(C)C)C(C)=C2C(=O)OC (centres undefined)"
  measured.parameter: "GI50"
  result: "> 100 µM (inactive)"

Kindly consider the entry below.
// query Indicate its recorded GI50; the compound in question is O=C1C2CC(Cl)C(SSC3CC4C(=O)N(SC(Cl)(Cl)C(Cl)Cl)C(=O)C4CC3Cl)CC2C(=O)N1SC(Cl)(Cl)C(Cl)Cl (centres undefined)
// result 3.86 µM (inactive)

###

Tested on: SK-MEL-28
Assay: NCI tumour cell line growth inhibition, 48 h
Calls of active or inactive are those of the source. Rule as the data show it: active = GI50 up to about 1.1 µM and inactive = higher.
Write down the outcome that applies. Available outcomes: active, inactive

- compound: "C/C(=N/NC(=S)N1CC2CCC(CC2)C1)c1cnccn1"
  assigned.class: "inactive"

// query Any idea what this test logged for N=C(N)SCCSC(=N)N ?
// result inactive

// query # outcome recorded in this test, key = N=C(N)NS(=O)(=O)c1ccc(NC(=O)c2c3ccccc3nc3ccccc23)cc1
// result inactive

// query Recorded call for CCOC(=O)C(NC(=O)c1ccco1)(Nc1nc2ccc(OCC)cc2s1)C(F)(F)F (centres undefined) ?
// result inactive

// query // outcome(item) with item = c1ccc2c(c1)Cc1c(Cc3csc4ccccc34)ccc3cccc-2c13
// result inactive

// query Query: recorded result category for COc1cc(/C=C/c2nc(NC(=S)Nc3ccccc3)nnc2C)cc(OC)c1OC in this test
// result inactive

// query Tell me the assay call for O=C1C(Cl)=C(NCCN2CCOCC2)C(=O)c2ncccc21 please.
// result inactive

// query Identify the outcome logged in this assay for the compound shown: CC(C)=CCC[C@@H](C)c1c2nc3ccccc3[nH]c-2c(C)c(=O)c1O
// result inactive

// query Which outcome did this test record for the compound Cc1ccc([N+](=O)[O-])cc1NC(=O)/C(CC(=O)c1sc(C(N)=S)nc1C)=N\N ?
// result inactive

// query Lab log entry: COC(=O)C1=Nc2c(C)nn(-c3ccccc3)c2N=C(c2ccccc2)C1 — outcome as called in the assay?
// result inactive

// query Call for entry O=[N+]([O-])C(=C1c2ccccc2-c2ccccc21)[N+](=O)[O-] :
// result inactive

// query Assay outcome for Cc1[nH]c2ccccc2c1/C=N/c1ccc(/N=C/c2c(C)[nH]c3ccccc23)cc1 : what was it?
// result inactive

// query For this compound, state the assay outcome: O=C1/C(=C/c2ccc(O)cc2)CCc2ccccc21
// result inactive

// query // param item: Cc1ccc(S(=O)(=O)NNC(=O)Nc2ccc(Cl)cc2)cc1 ; yields the recorded call
// result inactive

// query Returns: the outcome recorded for CCOC(=O)/C(Cl)=C(\C)Nc1nc2c(ccc3ccccc32)s1 in this assay.
// result inactive

// query Hi team, can someone confirm the assay call for c1ccc2c(Cc3[nH]c4ccccc4c3Cc3c[nH]c4ccccc34)c[nH]c2c1 ?
// result inactive

// query Please state the recorded outcome for this compound: COC1=CCC2=C(CCN(C(=O)C3CC3)C2Cc2ccc(OC)c(O)c2)C1 (centres undefined)
// result inactive
